src = the supplement of paper PMC6757056

B1: library; a variant is named by its letters at N, in order (parent)
chain: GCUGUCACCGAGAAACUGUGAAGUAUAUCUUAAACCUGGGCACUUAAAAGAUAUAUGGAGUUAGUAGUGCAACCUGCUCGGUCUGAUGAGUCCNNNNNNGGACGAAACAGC

- Variants of: B1
- EXPERIMENT_DESCRIPTION: normalized RNA/DNA level with ligand (relative to sTRSVctl = 100) (log10 (% of sTRSVctl)); HEK293T; ligand: cyclic di-GMP (c-di-GMP-II aptamer); ligand concentration (+) RNA-Seq: 1 mM; higher = less ribozyme self-cleavage, higher mRNA level
- MEASUREMENT_CONDITIONS: reporter: mCherry (pCS4076), ligand present: yes
QUANTITY_NAME: normalized RNA/DNA level with ligand (log10)

# VARIANT_LABEL, NUMERIC_RESULT
records = [
    ("AGUUCU", 1.87),
    ("UUGUAA", 1.86),
    ("GAUGCG", 1.89),
    ("CAAGGA", 1.64),
    ("CUGAAC", 1.77),
    ("ACUGCU", 1.8),
    ("CCAAUU", 1.72),
    ("GUUACG", 1.81),
    ("AGAGCC", 1.88),
    ("GAACUA", 1.77),
    ("UCUUUA", 1.84),
    ("CAGUGU", 1.84),
    ("CGGCGU", 1.91),
    ("CCCAGG", 1.89),
    ("AAAGUG", 1.67),
    ("UCAUCU", 1.9),
    ("GUGGCU", 1.86),
    ("ACACAA", 1.66),
    ("GAACCG", 1.81),
    ("ACCCAC", 1.84),
    ("GAUAUC", 1.86),
    ("AGGCAG", 1.83),
    ("GAGCAC", 1.87),
    ("UACCGC", 1.86),
    ("GCGAGG", 1.75),
    ("CUUUCG", 1.88),
    ("CUCCUC", 1.87),
    ("AGUGCU", 1.82),
    ("UUGACA", 1.83),
    ("GCGACA", 1.73),
    ("AGUAAU", 1.83),
    ("CUAUCG", 1.88),
    ("AAAGAA", 1.55),
    ("GCGCGG", 1.87),
    ("GAACCC", 1.91),
    ("AUAGCU", 1.78),
    ("CGAUAA", 1.41),
    ("GAACGU", 1.69),
    ("AUUAGG", 1.72),
    ("ACGCCG", 1.85),
    ("UGCUGC", 1.92),
    ("AAACGU", 1.62),
    ("GACCAC", 1.85),
    ("GCCGAU", 1.74),
    ("GCGGGA", 1.72),
    ("AAUUAA", 1.72),
]
